# assayed_target: Prolyl endopeptidase FAP (Mus musculus)
# Sequence (P97321 whole entry): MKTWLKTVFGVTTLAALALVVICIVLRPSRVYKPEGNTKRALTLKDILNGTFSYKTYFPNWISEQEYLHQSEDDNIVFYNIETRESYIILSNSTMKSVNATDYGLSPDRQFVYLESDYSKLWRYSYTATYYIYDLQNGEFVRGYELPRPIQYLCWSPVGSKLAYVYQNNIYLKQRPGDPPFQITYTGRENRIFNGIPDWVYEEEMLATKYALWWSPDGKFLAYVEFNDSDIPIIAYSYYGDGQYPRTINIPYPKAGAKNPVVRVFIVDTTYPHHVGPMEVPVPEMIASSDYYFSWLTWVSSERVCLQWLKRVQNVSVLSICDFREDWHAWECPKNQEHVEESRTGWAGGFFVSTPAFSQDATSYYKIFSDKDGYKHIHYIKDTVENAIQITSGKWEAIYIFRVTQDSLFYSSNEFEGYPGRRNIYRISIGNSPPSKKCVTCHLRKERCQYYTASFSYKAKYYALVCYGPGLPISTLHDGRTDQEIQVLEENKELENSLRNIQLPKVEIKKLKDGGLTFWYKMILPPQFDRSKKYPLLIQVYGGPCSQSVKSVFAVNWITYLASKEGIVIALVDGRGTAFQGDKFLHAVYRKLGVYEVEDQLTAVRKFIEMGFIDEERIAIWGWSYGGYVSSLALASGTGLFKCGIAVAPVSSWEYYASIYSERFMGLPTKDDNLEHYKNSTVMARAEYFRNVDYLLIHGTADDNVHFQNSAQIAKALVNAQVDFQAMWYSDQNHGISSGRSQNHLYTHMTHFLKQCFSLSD
property: IC50 (µM)
One number for each entry, in µM.

Please report the measured IC50 for C#CC[C@H](NC(=O)[C@H](CCCNC(=N)N(C)C)NC(=O)c1coc(CNC(=O)CCC(=O)N2CC(F)(F)C[C@H]2C#N)c1)C(=O)N[C@@H](CCCCN)C(=O)O [US20250177582, Compound 2]
0.0292

----------
# assayed_target: Prolyl endopeptidase FAP (Homo sapiens)
# Sequence (Q12884 whole entry): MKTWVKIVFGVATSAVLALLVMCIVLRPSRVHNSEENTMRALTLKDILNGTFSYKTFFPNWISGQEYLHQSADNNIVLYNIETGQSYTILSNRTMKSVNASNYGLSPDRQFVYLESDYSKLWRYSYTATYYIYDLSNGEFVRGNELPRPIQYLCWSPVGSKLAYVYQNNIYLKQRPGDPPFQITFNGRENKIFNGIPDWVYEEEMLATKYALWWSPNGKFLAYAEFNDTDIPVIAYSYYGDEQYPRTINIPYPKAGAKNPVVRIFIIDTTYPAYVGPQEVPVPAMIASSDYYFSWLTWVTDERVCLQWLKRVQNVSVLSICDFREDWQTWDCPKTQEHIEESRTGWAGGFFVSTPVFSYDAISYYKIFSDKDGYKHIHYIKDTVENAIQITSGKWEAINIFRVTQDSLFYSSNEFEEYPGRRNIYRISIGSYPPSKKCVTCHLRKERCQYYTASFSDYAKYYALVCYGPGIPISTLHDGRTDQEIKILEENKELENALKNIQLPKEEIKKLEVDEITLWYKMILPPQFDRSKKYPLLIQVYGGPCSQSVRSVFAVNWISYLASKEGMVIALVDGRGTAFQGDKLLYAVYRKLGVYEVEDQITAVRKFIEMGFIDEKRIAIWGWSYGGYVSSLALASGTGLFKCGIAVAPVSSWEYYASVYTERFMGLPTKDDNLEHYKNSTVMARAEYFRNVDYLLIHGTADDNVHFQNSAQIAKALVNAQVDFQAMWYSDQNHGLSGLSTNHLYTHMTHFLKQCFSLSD
property: IC50 (nM)
Give bare numbers, in nM.

Tell me its IC50 given C#CC[C@H](NC(=O)[C@H](CCCNC(=N)N(C)C)NC(=O)c1coc(CNC(=O)CCC(=O)N2CC(F)(F)C[C@H]2C#N)c1)C(=O)N[C@@H](CCCCN)C(=O)O as the entry.
44.1
